Where do the numbers come from? From paper PMC12150326.

Please go through the items and note down their _MID Log10TGI.
- Tested on: NCI 60 cell lines
- Format: cell-based, human
- Run conditions: mean graph midpoint

Consider the following illustrative entries.
COc1cc(C)c(-c2ccc(OC)c(=O)cc2C)c(OC)c1OC (single isomer, unassigned) [(aS)-6]: -4.0 Molar
COc1cc(C)c(-c2ccc(=O)c(OC)cc2C)c(OC)c1OC (single isomer, unassigned) [(aS)-iso-6]: -4.04 Molar
COc1cc(C)c(-c2ccc(OC)c(=O)cc2C)c(OC)c1OC (single isomer, unassigned) [(aR)-6]: -4.2 Molar

Exercise: Answer with reported _MID Log10TGI of COc1cc(C)c(-c2ccc(=O)c(OC)cc2C)c(OC)c1OC (single isomer, unassigned) [(aR)-iso-6]
Solution: -4.0 Molar

---

- Test system: EKVX
- Type: cell-based, human
For each record, write down the corresponding Log10TGI.

COc1cc(C)c(-c2ccc(=O)c(OC)cc2C)c(OC)c1OC (single isomer, unassigned) [(aR)-iso-6]: > -4.00 Molar
COc1cc(C)c(-c2ccc(=O)c(OC)cc2C)c(OC)c1OC (single isomer, unassigned) [(aS)-iso-6]: > -4.00 Molar

Batch lookup, Log10TGI per entry.
1. COc1cc(C)c(-c2ccc(OC)c(=O)cc2C)c(OC)c1OC (single isomer, unassigned) [(aS)-6]
2. COc1cc(C)c(-c2ccc(OC)c(=O)cc2C)c(OC)c1OC (single isomer, unassigned) [(aR)-6]

Solution:
["> -4.00 Molar", "> -4.00 Molar"]

---

- Tested on: MOLT-4
- Assay type: cell-based, human
Endpoint label: Log10GI50 (Molar)
Answers are plain numbers, in Molar.

COc1cc(C)c(-c2ccc(=O)c(OC)cc2C)c(OC)c1OC (single isomer, unassigned) [(aS)-iso-6]: -4.44

Please look at the following compound next.
Exercise: Report its Log10GI50 with MOLT-4 as the test system: COc1cc(C)c(-c2ccc(OC)c(=O)cc2C)c(OC)c1OC (single isomer, unassigned) [(aR)-6]
Solution: -5.58

---

- Tested on: K-562
- Type: cell-based, human
- Method: (aR)-6, (aS)-6, (aS)-iso -6, and (aR)-iso -6 were submitted to the 60 Cell Screen panel and evaluated at 5 doses (100 μM, 10 μM, 1 μM, 0.1 μM, and 0.01 μM). […] The complete report from this submission is available at the publisher’s Web site as a separate Supporting Information file. For COMPARE analysis, TGI levels of response for (aR)-DM-MTC (6) and (aS)-iso-DM-MTC were compared to those of several established tubulin inhibitors previously tested in the NCI-60 screen.
Endpoint label: Log10GI50 (Molar)
Give bare numbers, in Molar.

Check out these entries, answers already filled in.
COc1cc(C)c(-c2ccc(OC)c(=O)cc2C)c(OC)c1OC (single isomer, unassigned) [(aS)-6]: -4.38
COc1cc(C)c(-c2ccc(=O)c(OC)cc2C)c(OC)c1OC (single isomer, unassigned) [(aS)-iso-6]: -5.30

Kindly consider the entry below.
Exercise: Supply reported Log10GI50 belonging to this compound: COc1cc(C)c(-c2ccc(OC)c(=O)cc2C)c(OC)c1OC (single isomer, unassigned) [(aR)-6]
Solution: -6.31

---

- Tested on: EKVX
- Assay type: cell-based, human
Kindly supply the reported Log10LC50 values for the records listed here.

Go through the list and state Log10LC50 for each entry.
1. COc1cc(C)c(-c2ccc(=O)c(OC)cc2C)c(OC)c1OC (single isomer, unassigned) [(aR)-iso-6]
2. COc1cc(C)c(-c2ccc(OC)c(=O)cc2C)c(OC)c1OC (single isomer, unassigned) [(aS)-6]
3. COc1cc(C)c(-c2ccc(=O)c(OC)cc2C)c(OC)c1OC (single isomer, unassigned) [(aS)-iso-6]

Solution:
1. > -4.00 Molar
2. > -4.00 Molar
3. > -4.00 Molar

Exercise: Supply measured Log10LC50 of COc1cc(C)c(-c2ccc(OC)c(=O)cc2C)c(OC)c1OC (single isomer, unassigned) [(aR)-6] in your reply.
Solution: > -4.00 Molar

---

Can you tell me Log10GI50 for the items I'm about to list?
- System: NCI-H460
- Format: cell-based, human
Answers are plain numbers, in Molar.

COc1cc(C)c(-c2ccc(=O)c(OC)cc2C)c(OC)c1OC (single isomer, unassigned) [(aS)-iso-6]: -4.50

Please turn your attention to the following entry.
Exercise: Identify Log10GI50 associated with the compound COc1cc(C)c(-c2ccc(OC)c(=O)cc2C)c(OC)c1OC (single isomer, unassigned) [(aR)-6]
Solution: -5.55

---

- Tested on: SK-MEL-5
- Assay type: cell-based, human
Endpoint label: Log10GI50

COc1cc(C)c(-c2ccc(=O)c(OC)cc2C)c(OC)c1OC (single isomer, unassigned) [(aS)-iso-6]: -4.34 Molar
COc1cc(C)c(-c2ccc(=O)c(OC)cc2C)c(OC)c1OC (single isomer, unassigned) [(aR)-iso-6]: > -4.00 Molar
COc1cc(C)c(-c2ccc(OC)c(=O)cc2C)c(OC)c1OC (single isomer, unassigned) [(aR)-6]: -5.50 Molar

Moving on to another compound below.
Exercise: Report Log10GI50 under test system SK-MEL-5 for COc1cc(C)c(-c2ccc(OC)c(=O)cc2C)c(OC)c1OC (single isomer, unassigned) [(aS)-6] .
Solution: > -4.00 Molar

---

- Tested on: BT-549
- Assay type: cell-based, human
- Protocol: (aR)-6, (aS)-6, (aS)-iso -6, and (aR)-iso -6 were submitted to the 60 Cell Screen panel and evaluated at 5 doses (100 μM, 10 μM, 1 μM, 0.1 μM, and 0.01 μM). […] The complete report from this submission is available at the publisher’s Web site as a separate Supporting Information file. For COMPARE analysis, TGI levels of response for (aR)-DM-MTC (6) and (aS)-iso-DM-MTC were compared to those of several established tubulin inhibitors previously tested in the NCI-60 screen.
Endpoint label: Log10TGI

Previously resolved entries follow.
COc1cc(C)c(-c2ccc(OC)c(=O)cc2C)c(OC)c1OC (single isomer, unassigned) [(aR)-6]: -5.18 Molar
COc1cc(C)c(-c2ccc(OC)c(=O)cc2C)c(OC)c1OC (single isomer, unassigned) [(aS)-6]: > -4.00 Molar
COc1cc(C)c(-c2ccc(=O)c(OC)cc2C)c(OC)c1OC (single isomer, unassigned) [(aR)-iso-6]: > -4.00 Molar

Please turn your attention to the following entry.
Exercise: State, for BT-549, measured Log10TGI of the molecule listed here: COc1cc(C)c(-c2ccc(=O)c(OC)cc2C)c(OC)c1OC (single isomer, unassigned) [(aS)-iso-6]
Solution: > -4.00 Molar

---

Give measured Log10GI50 for each item. Keep answers brief.
- Test system: IGROV1
- Assay type: cell-based, human
Answers are plain numbers, in Molar.

COc1cc(C)c(-c2ccc(OC)c(=O)cc2C)c(OC)c1OC (single isomer, unassigned) [(aR)-6]: -5.37

Field: next compound
Exercise: Check the records and state Log10GI50 for COc1cc(C)c(-c2ccc(=O)c(OC)cc2C)c(OC)c1OC (single isomer, unassigned) [(aS)-iso-6]
Solution: -4.32

---

Please respond with reported _MID Log10LC50 for every item in the list.
- System: NCI 60 cell lines
- Assay type: cell-based, human
- Run conditions: mean graph midpoint
Answers are plain numbers, in Molar.

COc1cc(C)c(-c2ccc(=O)c(OC)cc2C)c(OC)c1OC (single isomer, unassigned) [(aS)-iso-6]: -4.0
COc1cc(C)c(-c2ccc(OC)c(=O)cc2C)c(OC)c1OC (single isomer, unassigned) [(aS)-6]: -4.0
COc1cc(C)c(-c2ccc(=O)c(OC)cc2C)c(OC)c1OC (single isomer, unassigned) [(aR)-iso-6]: -4.0

Now consider a different molecule.
Exercise: Enter measured _MID Log10LC50, system NCI 60 cell lines, for the molecule shown: COc1cc(C)c(-c2ccc(OC)c(=O)cc2C)c(OC)c1OC (single isomer, unassigned) [(aR)-6]
Solution: -4.01

---

Please provide measured Log10GI50 for the entries that follow.
- System: SNB-19
- Type: cell-based, human
One number for each entry, in Molar.

COc1cc(C)c(-c2ccc(=O)c(OC)cc2C)c(OC)c1OC (single isomer, unassigned) [(aS)-iso-6]: -4.53

Please turn your attention to the following entry.
Exercise: Assign Log10GI50 to the following record: COc1cc(C)c(-c2ccc(OC)c(=O)cc2C)c(OC)c1OC (single isomer, unassigned) [(aR)-6]
Solution: -5.53
